As shown below, each of these binders has a reported koff value.
Molecular target: T1, Human IL2Rγ extracellular domain expressed with a C-terminal myc-myc-hexahistidine tag (human)
T1 construct: also called hIL-2Rg-MMH; hIL-2RG-MMH
T1 chain: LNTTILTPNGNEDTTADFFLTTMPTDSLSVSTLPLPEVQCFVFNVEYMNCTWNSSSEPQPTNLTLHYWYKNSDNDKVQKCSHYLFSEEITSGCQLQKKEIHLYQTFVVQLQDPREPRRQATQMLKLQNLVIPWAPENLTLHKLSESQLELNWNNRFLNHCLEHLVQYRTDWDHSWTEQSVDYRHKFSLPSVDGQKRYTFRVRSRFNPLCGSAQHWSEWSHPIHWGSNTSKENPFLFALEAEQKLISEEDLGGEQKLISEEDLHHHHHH
Assay: SPR, captured mAb, 25C, dissociation pH 7.4
Number only, in s⁻¹; omit the unit.

binder | koff, s⁻¹
H4H12900P (antibody, human IgG4 S228P, kappa, V domains shown, anti-IL2Rgamma mAb expressed with human IgG4 Fc) VH: QVQLVESGGGLVKPGGSLRLSCEASGFTFNDFYMTWIRQAPGKGLEWIAYISKSGDKMRYADSVKGRFSTSRDNAKNSLSLQMNSLRAEDTAVYYCARFYGDIWGQGTLVTVSS VL: DIQLTQSPSFLSASVGDRVTITCWASQDISSFLVWYQQKPGKAPNLLIYAASALQSGVPSRFSGSGSGTEFTLTISSLQPEDFASYYCEQLNNYPWTFGQGTKVEIKR | 0.000175
H4H12874P (antibody, human IgG4 S228P, kappa, V domains shown, anti-IL2Rgamma mAb expressed with human IgG4 Fc) VH: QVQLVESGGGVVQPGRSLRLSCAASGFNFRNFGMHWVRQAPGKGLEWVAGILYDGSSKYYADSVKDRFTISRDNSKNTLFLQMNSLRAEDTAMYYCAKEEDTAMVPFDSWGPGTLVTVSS VL: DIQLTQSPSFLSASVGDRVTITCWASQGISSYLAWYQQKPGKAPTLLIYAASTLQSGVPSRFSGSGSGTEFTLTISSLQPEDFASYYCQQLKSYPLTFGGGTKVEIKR | 0.000162

Now consider a different binder.
The reported value for H4H13541P (antibody, human IgG4 S228P, kappa, V domains shown, anti-IL2Rgamma mAb expressed with human IgG4 Fc) VH: EVQLVESGGGVVRPGGSLRLSCAASGFIFDDYDMSWVRQPPGRGLEWVSGIDWFGGTRGYADSMKGRFTISRDNAKNSLYLQMNSLRVEDTAFYYCARGGAIVGAVTPFDYWGQGTLVTVSS VL: DIQMTQSPSSLSASVGNRVTLSCRASQSINTYLSWYQQRPGKAPKLLIYAASSLQSGVPSRFSGSGAGTDFTLTISSLQPEDFATYYCQQSYSAPLTFGGGTKVEIKR in terms of koff is 0.000165
